System: Hsp90 in HEPG2 lysate
protocol conditions: HepG2 lysate, 3000 nM compound, raw
Assign FP signal to each entry below.
Numbers only.

molecule	FP signal
COc1ccc(CON=C2C=CC=CC3OC3CC(C)OC(=O)c3c(O)cc(O)cc3C2)cc1 (stereo not shown)	111

Each of the following entries comes with a recorded value; kindly state FP signal for each.
1. C[C@@H]1C[C@@H]2O[C@@H]2/C=C\C=C\C(=NOCc2ccccc2Cl)Cc2c(Cl)c(O)cc(O)c2C(=O)O1
2. CC1CC2OC2C=CC=CC(=NOCc2cccc(F)c2)Cc2c(Cl)c(O)cc(O)c2C(=O)O1 (mixture of isomers)

Outgoing:
1: 44; 2: 40

Incoming: Fill in FP signal for record Cc1ccc(CON=C2C=CC=CC3OC3CC(C)OC(=O)c3c(O)cc(O)c(Cl)c3C2)cc1 (mixture of isomers)
Outgoing: 85

---

tested system: Hsp90 in C. albicans (SC5314) lysate (Candida albicans, UniProt P46598)
Construct: endogenous in cells; host or cells: C. albicans SC5314 whole-cell lysate
Sequence (P46598 whole entry): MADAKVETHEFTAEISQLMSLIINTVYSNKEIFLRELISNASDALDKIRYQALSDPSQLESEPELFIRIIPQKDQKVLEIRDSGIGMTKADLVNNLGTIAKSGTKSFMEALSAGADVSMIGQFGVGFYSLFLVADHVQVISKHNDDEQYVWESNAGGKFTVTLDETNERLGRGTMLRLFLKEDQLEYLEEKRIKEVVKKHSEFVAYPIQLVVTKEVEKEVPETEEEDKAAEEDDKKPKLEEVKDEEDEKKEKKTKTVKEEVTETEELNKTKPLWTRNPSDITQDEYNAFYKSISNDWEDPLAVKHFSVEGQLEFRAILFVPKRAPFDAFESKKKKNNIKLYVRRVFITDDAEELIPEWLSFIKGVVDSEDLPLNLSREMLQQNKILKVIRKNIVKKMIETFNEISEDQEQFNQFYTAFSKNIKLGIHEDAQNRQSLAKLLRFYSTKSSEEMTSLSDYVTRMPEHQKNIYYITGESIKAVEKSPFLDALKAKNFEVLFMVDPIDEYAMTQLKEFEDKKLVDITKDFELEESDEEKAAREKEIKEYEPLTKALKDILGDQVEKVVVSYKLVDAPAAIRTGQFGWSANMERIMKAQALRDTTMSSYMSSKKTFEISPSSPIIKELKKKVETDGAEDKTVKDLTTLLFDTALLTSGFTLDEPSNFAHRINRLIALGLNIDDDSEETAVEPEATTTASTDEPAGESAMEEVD
experiment summary: biochemical
Assay type: binding
protocol conditions: SC5314 lysate, 111.111 nM
reported property: FP signal (raw)
Give bare numbers.

compound	endpoint result
CC1CC2OC2C=CC=CC(=NOCCN2CCCC2=O)Cc2c(Cl)c(O)cc(O)c2C(=O)O1 (stereo not shown) [KF58333, reference compound]	38
COc1ccccc1CON=C1C=CC=CC2OC2CC(C)OC(=O)c2c(O)cc(O)c(Cl)c2C1 (mixture of isomers) [compound 226]	176
CC1CC2OC2C=CC=CC(=NOCc2cccc(F)c2)Cc2c(Cl)c(O)cc(O)c2C(=O)O1 (mixture of isomers) [compound 227]	162

Kindly consider the entry below.
Incoming: Using Hsp90 in C. albicans (SC5314) lysate (Candida albicans, UniProt P46598) as the test system, report measured FP signal (raw) of CCNC(=O)c1noc(-c2cc(C(C)C)c(O)cc2O)c1-c1ccc(CN2CCOCC2)cc1 [AUY922, reference compound] .
Outgoing: 31

---

System: Hsp90 in HEPG2 lysate
protocol conditions: HepG2 lysate, 4.115 nM
reported property: FP signal (raw)

Worked cases, answers included:
molecule	endpoint result
COc1ccccc1CON=C1C=CC=CC2OC2CC(C)OC(=O)c2c(O)cc(O)c(Cl)c2C1 (mixture of isomers)	208
C[C@@H]1C[C@@H]2O[C@@H]2/C=C\C=C\C(=NOCc2ccccc2Cl)Cc2c(Cl)c(O)cc(O)c2C(=O)O1	206

Incoming: Fill in FP signal (raw) for record CC1CC2OC2C=CC=CC(=NOCc2cccc(F)c2)Cc2c(Cl)c(O)cc(O)c2C(=O)O1 (mixture of isomers)
Outgoing: 200

---

tested system: Hsp90 in C. albicans (SC5314) lysate (Candida albicans, UniProt P46598)
Construct: endogenous in cells; host or cells: C. albicans SC5314 whole-cell lysate
experiment summary: biochemical
Format: binding
protocol conditions: SC5314 lysate, 1.372 nM compound, raw
Returns: string. Value is Met if measured FP signal is below 200, and Not met if it is greater than or equal to it.

compound	class label
C[C@@H]1C[C@@H]2O[C@@H]2/C=C\C=C\C(=NOCc2ccccc2Cl)Cc2c(Cl)c(O)cc(O)c2C(=O)O1	Not met

Okay, now this compound:
Incoming: Please let me know if CC1CC2OC2C=CC=CC(=NOCCN2CCCC2=O)Cc2c(Cl)c(O)cc(O)c2C(=O)O1 (stereo not shown) [KF58333, reference compound] shows FP signal below 200.
Outgoing: Met

---

Tested on: Hsp90 in HEPG2 lysate
protocol conditions: HEPG2 lysate, log concentration 1.56864 (37.037 nM)
reported property: FP signal, Fxn Control
Numbers only.

Worked cases, answers included:
compound	FP signal, Fxn Control
CC1CC2OC2C=CC=CC(=NOCCN2CCCC2=O)Cc2c(Cl)c(O)cc(O)c2C(=O)O1 (stereo not drawn) [KF58333, reference compound]	0.302
CC1CC2OC2C=CC=CC(=NOCc2cccc(F)c2)Cc2c(Cl)c(O)cc(O)c2C(=O)O1 (mixture of isomers) [compound 227]	0.9519
CCNC(=O)c1noc(-c2cc(C(C)C)c(O)cc2O)c1-c1ccc(CN2CCOCC2)cc1 [AUY922, reference compound]	0.2085
CC1(C)CC(=O)c2c(C(F)(F)F)nn(-c3ccc(C(N)=O)c(N[C@H]4CC[C@H](O)CC4)c3)c2C1 [SNX-2112, reference compound]	0.6066
CC1CC2OC2C=CC=CC(=NOCc2ccccc2)Cc2c(Cl)c(O)cc(O)c2C(=O)O1 (mixture of isomers) [compound 217]	0.9612

Each of the following entries comes with a recorded value; kindly state FP signal, Fxn Control for each.
1. CCON=C1/C=C/C=C\[C@H]2O[C@H]2C[C@@H](C)OC(=O)c2c(O)cc(O)c(Cl)c2C1 [compound 333]
2. C[C@@H]1C[C@@H]2O[C@@H]2/C=C\C=C\C(=NOCc2ccccc2Cl)Cc2c(Cl)c(O)cc(O)c2C(=O)O1 [compound 4]

Outgoing:
[0.3066, 1.0099]

---

Assign FP signal (raw) to each entry below.
tested system: Hsp90 in C. albicans (SC5314) lysate (Candida albicans, UniProt P46598)
Construct: endogenous in cells; host or cells: C. albicans SC5314 whole-cell lysate
experiment summary: biochemical
Assay type: binding
protocol conditions: SC5314 lysate, 0.457 nM

Worked cases, answers included:
compound	reported property	endpoint result
COc1ccc(CON=C2C=CC=CC3OC3CC(C)OC(=O)c3c(O)cc(O)c(Cl)c3C2)cc1 (mixture of isomers)	FP signal (raw)	204
Cc1ccc(CON=C2C=CC=CC3OC3CC(C)OC(=O)c3c(O)cc(O)c(Cl)c3C2)cc1 (mixture of isomers)	FP signal (raw)	202
CC1CC2OC2C=CC=CC(=NOCc2ccccc2)Cc2c(Cl)c(O)cc(O)c2C(=O)O1 (mixture of isomers)	FP signal (raw)	197
CCNC(=O)c1noc(-c2cc(C(C)C)c(O)cc2O)c1-c1ccc(CN2CCOCC2)cc1 [AUY922, reference compound]	FP signal (raw)	200
CC1CC2OC2C=CC=CC(=NOCc2cccc(F)c2)Cc2c(Cl)c(O)cc(O)c2C(=O)O1 (mixture of isomers)	FP signal (raw)	194

Each of the following entries comes with a recorded value; kindly state FP signal (raw) for each.
1. CC1(C)CC(=O)c2c(C(F)(F)F)nn(-c3ccc(C(N)=O)c(N[C@H]4CC[C@H](OC(=O)CN)CC4)c3)c2C1
2. COc1ccccc1CON=C1C=CC=CC2OC2CC(C)OC(=O)c2c(O)cc(O)c(Cl)c2C1 (mixture of isomers)
3. CCON=C1/C=C/C=C\[C@H]2O[C@H]2C[C@@H](C)OC(=O)c2c(O)cc(O)c(Cl)c2C1
4. COc1ccc(CON=C2C=CC=CC3OC3CC(C)OC(=O)c3c(O)cc(O)cc3C2)cc1 (stereo not shown)
5. CC1CC2OC2C=CC=CC(=NOCCN2CCCC2=O)Cc2c(Cl)c(O)cc(O)c2C(=O)O1 (stereo not shown) [KF58333, reference compound]

Outgoing:
205
193
168
200
203

---

tested system: Hsp90 in C. albicans (SC5314) lysate (Candida albicans, UniProt P46598)
Construct: endogenous in cells; host or cells: C. albicans SC5314 whole-cell lysate
experiment summary: biochemical
Format: binding
protocol conditions: SC5314 lysate, 37.037 nM compound
Assign FP signal relative to 0 nM to each entry below.
Give bare numbers.

Each of the following entries comes with a recorded value; kindly state FP signal relative to 0 nM for each.
1. COc1ccc(CON=C2C=CC=CC3OC3CC(C)OC(=O)c3c(O)cc(O)c(Cl)c3C2)cc1 (mixture of isomers)
2. COc1ccc(CON=C2C=CC=CC3OC3CC(C)OC(=O)c3c(O)cc(O)cc3C2)cc1 (stereo not drawn)

Outgoing:
[0.99, 0.9515]

Each of the following entries comes with a recorded value; kindly state FP signal relative to 0 nM for each.
1. CC1CC2OC2C=CC=CC(=NOCc2ccccc2)Cc2c(Cl)c(O)cc(O)c2C(=O)O1 (mixture of isomers)
2. C[C@@H]1C[C@@H]2O[C@@H]2/C=C\C=C\C(=NOCc2ccccc2Cl)Cc2c(Cl)c(O)cc(O)c2C(=O)O1
3. CCON=C1/C=C/C=C\[C@H]2O[C@H]2C[C@@H](C)OC(=O)c2c(O)cc(O)c(Cl)c2C1
4. CC1CC2OC2C=CC=CC(=NOCCN2CCCC2=O)Cc2c(Cl)c(O)cc(O)c2C(=O)O1 (stereo not drawn) [KF58333, reference compound]

Outgoing:
1. 0.9187
2. 0.9567
3. 0.2871
4. 0.2126

Each of the following entries comes with a recorded value; kindly state FP signal relative to 0 nM for each.
1. CC1CC2OC2C=CC=CC(=NOCc2cccc(F)c2)Cc2c(Cl)c(O)cc(O)c2C(=O)O1 (mixture of isomers)
2. Cc1ccc(CON=C2C=CC=CC3OC3CC(C)OC(=O)c3c(O)cc(O)c(Cl)c3C2)cc1 (mixture of isomers)
3. COc1ccccc1CON=C1C=CC=CC2OC2CC(C)OC(=O)c2c(O)cc(O)c(Cl)c2C1 (mixture of isomers)

Outgoing:
1. 0.8856
2. 0.9709
3. 0.9314
